Target: T1, extracellular domain (ECD) of recombinant human Sortilin with a C-terminal HIS tag (ECD-huSortilin-HIS) (human, UniProt Q99523 78-755)
T1 construct: Bought (R&D Systems); also called human sortilin-ECD; not shown: C-terminal HIS tag
T1 sequence: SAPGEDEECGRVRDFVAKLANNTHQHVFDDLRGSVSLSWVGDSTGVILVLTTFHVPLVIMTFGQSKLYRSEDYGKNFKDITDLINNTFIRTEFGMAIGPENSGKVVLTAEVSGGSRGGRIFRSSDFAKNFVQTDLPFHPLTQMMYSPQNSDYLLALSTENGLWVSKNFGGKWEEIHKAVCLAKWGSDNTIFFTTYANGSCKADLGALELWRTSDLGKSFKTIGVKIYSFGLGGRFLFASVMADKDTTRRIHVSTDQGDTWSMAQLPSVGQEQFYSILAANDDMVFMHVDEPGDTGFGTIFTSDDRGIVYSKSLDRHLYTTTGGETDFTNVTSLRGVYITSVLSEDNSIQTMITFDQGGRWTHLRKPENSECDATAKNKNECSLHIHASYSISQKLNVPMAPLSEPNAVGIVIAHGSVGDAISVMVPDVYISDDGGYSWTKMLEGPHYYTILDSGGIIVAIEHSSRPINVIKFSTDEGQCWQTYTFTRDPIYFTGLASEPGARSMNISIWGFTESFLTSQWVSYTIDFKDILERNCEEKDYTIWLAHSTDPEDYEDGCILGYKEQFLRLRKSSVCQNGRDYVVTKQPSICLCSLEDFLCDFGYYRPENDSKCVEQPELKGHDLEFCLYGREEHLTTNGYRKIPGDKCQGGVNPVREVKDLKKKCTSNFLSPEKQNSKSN
Experiment: SPR (Biacore T200), mAb captured by anti-human antibody on CM5, Sortilin 0.1-300 nM as analyte, global 1:1 fit
Collected kon values appear next to each entry.
Give your result in M⁻¹ s⁻¹ as a bare value.

1) humanized 5E20 hu5E20VHv3/hu5E20VLv3 (antibody, V domains shown, Human IgG; also called 5E20H3L3) VH: EVQLVESGGGLVQPGGSLRLSCAASGFTFSTYGMSWVRQAPGKRLEWVAIISSGGSYTYYSDTVKGRFTISRDNSKNSLYLQMNSLRAEDTAVYYCSRSSSHWYFDVWGQGTLVTVSS VL: DIQMTQSPSSVSASVGDRVTITCHASQGISSNIGWLQQKPGKAFKGLIYHGTNLKDGVPSRFSGSGSGADFTLTISSLQPEDFATYFCVQYAQFPYTFGQGTKVEKR : 183000
2) humanized 11M14 hu11M14VHv2b/hu11M14VLv4b (antibody, V domains shown, Human IgG; also called 11M14H2bL4b) VH: EVQLVESGGGLVQPGGSLRLSCAASGFTFNIYGMSWVRQAPGKGLEWVATISSGGIYTYYPDILKGRFTISRDNAKNSLYLQMNSGRAEDTAVYYCARHPGGAMDYWGQGTLVTVSS VL: DIQMTQSPSSLSASVGDRVTITCRVSENIYSNLAWYQQKPGKSPKLLVYAATNIADGVPSRFSGSGSGTDYTLTISSLQPEDFATYYCQHFWGTPPWTFGQGTKLEIK : 413000

// next item, kon requested
Which kon is reported for this binder? humanized 5E20 hu5E20VHv4/hu5E20VLv3 (antibody, V domains shown, Human IgG; also called 5E20H4L3) VH: EVQLVESGGGLVQPGGSLRLSCAASGFTFSTYGMSWVRQAPDKRLEWVAIISSGGSYTYYSDTVKGRFTISRDNSKNSLYLQMNSLRAEDTAVYYCSRSSSHWYFDVWGQGTLVTVSS VL: DIQMTQSPSSVSASVGDRVTITCHASQGISSNIGWLQQKPGKAFKGLIYHGTNLKDGVPSRFSGSGSGADFTLTISSLQPEDFATYFCVQYAQFPYTFGQGTKVEKR 228000
